- target.entity: D(2) dopamine receptor (Homo sapiens, UniProt P14416)
- Sequence (P14416 whole entry): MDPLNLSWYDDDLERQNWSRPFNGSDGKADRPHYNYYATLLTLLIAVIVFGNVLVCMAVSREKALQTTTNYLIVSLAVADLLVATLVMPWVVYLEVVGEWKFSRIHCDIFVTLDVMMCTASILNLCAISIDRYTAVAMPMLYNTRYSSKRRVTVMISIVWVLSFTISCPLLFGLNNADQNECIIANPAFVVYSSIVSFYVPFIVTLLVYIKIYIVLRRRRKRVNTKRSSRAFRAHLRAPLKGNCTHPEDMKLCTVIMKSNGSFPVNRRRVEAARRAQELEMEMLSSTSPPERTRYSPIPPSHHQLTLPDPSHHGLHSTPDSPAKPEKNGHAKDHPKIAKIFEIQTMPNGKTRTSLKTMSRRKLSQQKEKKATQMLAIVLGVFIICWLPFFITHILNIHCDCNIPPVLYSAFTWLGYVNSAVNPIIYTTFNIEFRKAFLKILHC
- measurement.notes: Antagonist activity at human dopamine D2L receptor expressed in CHO cells assessed as inhibition of dopamine-mediated Ca+2 stimulation pretreated for 10 mins followed by addition of dopamine by fluo-4 AM dye-based FLIPR assay
- Type: cell-based
measurement.name: Ki (nM)

[a] Cc1ncoc1-c1nnc(SCCCN2CC3CCN(c4ccc(C(F)(F)F)cc4F)C3C2)n1C (stereo in doubt; 8b)
[b] Cc1ncoc1-c1nnc(SCCCN2CC3CCN(c4ccccc4)C3C2)n1C (stereo in doubt; 6b)
(Q) # query: argmin of Ki over a and b Kindly give the label for the entry you pick.
(A) a
(a: 50.1 nM, b: 158 nM)

====

- target.entity: D(4) dopamine receptor (Homo sapiens, UniProt P21917)
- Sequence (P21917 whole entry): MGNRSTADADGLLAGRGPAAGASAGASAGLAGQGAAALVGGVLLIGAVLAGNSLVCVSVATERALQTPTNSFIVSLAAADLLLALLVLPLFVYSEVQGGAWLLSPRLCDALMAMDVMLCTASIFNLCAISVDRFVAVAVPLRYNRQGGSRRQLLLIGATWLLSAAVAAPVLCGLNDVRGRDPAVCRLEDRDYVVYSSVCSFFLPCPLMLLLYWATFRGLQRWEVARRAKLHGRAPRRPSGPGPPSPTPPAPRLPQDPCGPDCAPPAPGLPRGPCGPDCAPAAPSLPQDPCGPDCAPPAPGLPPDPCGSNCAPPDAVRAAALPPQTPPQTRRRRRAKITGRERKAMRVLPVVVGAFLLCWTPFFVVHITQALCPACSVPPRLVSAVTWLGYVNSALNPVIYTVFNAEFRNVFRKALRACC
measurement.name: pKi
// field semantics: pKi = negative decimal log of concentration (mol/L)

(Q) Request: pKi, test system D(4) dopamine receptor (Homo sapiens, UniProt P21917), entry Cn1c(SCCCN2CC3CCN(c4ccc(C(F)(F)F)cc4)C3C2)nnc1-c1cc[nH]c(=O)c1 (stereo in doubt; 55b)
(A) 4.80

====

- target.entity: D(2) dopamine receptor (Homo sapiens, UniProt P14416)
- measurement.notes: Displacement of [3H]-spiperone from human dopamine D2 receptor expressed in CHO-K1 cell membranes after 120 mins by liquid scintillation counter method
pKi: −log10 of the molar value.
measurement.name: pKi

Look over these answered cases.
[
  {
    "molecule": "Cn1c(SCCCN2CC3CCN(c4ccccc4C(F)(F)F)C3C2)nnc1-c1ccncc1 (racemic)",
    "pKi": 6.60
  },
  {
    "molecule": "CC(C)Oc1ccccc1N1CCC2CN(CCCSc3nnc(-c4cnccn4)n3C)CC21 (stereo in doubt; 35b)",
    "pKi": 6.60
  },
  {
    "molecule": "Cn1c(SCCCN2CC3CCN(c4cccc(F)c4)C3C2)nnc1-c1cnccn1 (racemic)",
    "pKi": 6.60
  },
  {
    "molecule": "Cn1c(SCCCN2CC3CCN(c4ccccc4C(F)(F)F)C3C2)nnc1-c1ccccn1 (racemic)",
    "pKi": 6.50
  }
]

[a] Cc1ncoc1-c1nnc(SCCCN2CC3CCN(c4cccc(C#N)c4)C3C2)n1C (stereo in doubt; 12a)
[b] Cn1c(SCCCN2CC3CCN(c4ccc(C(F)(F)F)cc4)C3C2)nnc1-c1cncnc1 (racemic)
[c] Cn1c(SCCCN2CC3CCN(c4ccc(F)cc4F)C3C2)nnc1-c1cnccn1 (stereo in doubt; 36b)
[d] Cn1c(SCCCN2CC3CCN(c4ccc(F)cc4)C3C2)nnc1-c1cc[nH]c(=O)c1 (racemic)
(Q) Sort the 4 molecules by pKi; largest first, smallest last. Please express your ranking as an ordered list of the labels.
(A) a, c, d, b

====

- measurement.notes: Half life in portal vein cannulated Sprague-Dawley rat model
- condition.summary: in vivo
measurement.name: half-life (min)

Look over these answered cases.
[
  {
    "compound": "Cn1c(SCCCN2CC3CCN(c4ccc(C(F)(F)F)cc4)C3C2)nnc1-c1cc[nH]c(=O)c1 (stereo in doubt; 55b)",
    "measurement.name": "half-life",
    "quantitative.result": 126
  },
  {
    "compound": "Cc1ncoc1-c1nnc(SCCCN2CC3CCN(c4ccccc4)C3C2)n1C (stereo in doubt; 6b)",
    "measurement.name": "half-life",
    "quantitative.result": 18
  },
  {
    "compound": "Cn1c(SCCCN2CC3CCN(c4ccccc4)C3C2)nnc1C1CCOCC1 (stereo in doubt; 62a)",
    "measurement.name": "half-life",
    "quantitative.result": 18
  }
]

[1] Cc1ncoc1-c1nnc(SCCCN2CC3CCN(c4ccc(F)cc4)C3C2)n1C (stereo in doubt; 9a)
[2] Cc1ncoc1-c1nnc(SCCCN2CC3CCN(c4ccc(C(F)(F)F)cc4F)C3C2)n1C (stereo in doubt; 8b)
(Q) # query: argmin of half-life over 1 and 2 Kindly give the label for the entry you pick.
(A) 1
(1: 18 min, 2: 90 min)

====

- target.entity: D(3) dopamine receptor (Homo sapiens)
- Sequence (P35462 whole entry): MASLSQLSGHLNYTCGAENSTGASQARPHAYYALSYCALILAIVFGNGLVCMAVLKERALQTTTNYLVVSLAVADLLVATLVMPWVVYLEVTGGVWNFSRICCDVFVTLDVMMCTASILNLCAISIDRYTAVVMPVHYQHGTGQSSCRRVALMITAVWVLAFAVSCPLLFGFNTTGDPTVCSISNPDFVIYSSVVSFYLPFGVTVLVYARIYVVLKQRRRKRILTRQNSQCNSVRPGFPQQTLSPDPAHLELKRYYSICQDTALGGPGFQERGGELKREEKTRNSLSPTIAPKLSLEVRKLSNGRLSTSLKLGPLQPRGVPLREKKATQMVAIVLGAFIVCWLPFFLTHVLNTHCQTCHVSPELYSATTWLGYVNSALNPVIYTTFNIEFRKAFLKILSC
- measurement.notes: Displacement of [3H]-spiperone from human dopamine D3 receptor expressed in CHO-K1 cell membranes after 90 mins by liquid scintillation counter method
pKi: −log10 of the molar value.
measurement.name: pKi

Look over these answered cases.
[
  {
    "compound": "Cc1ncoc1-c1nnc(SCCCN2CC3CCCN(c4ccc(C(F)(F)F)cc4)C3C2)n1C (racemic)",
    "target.entity": "D(3) dopamine receptor (Homo sapiens)",
    "quantitative.result": 7.90
  },
  {
    "compound": "Cc1ncoc1-c1nnc(SCCCN2CC3CN(c4ccc(C(F)(F)F)cc4)C3C2)n1C (racemic)",
    "target.entity": "D(3) dopamine receptor (Homo sapiens)",
    "quantitative.result": 7.40
  },
  {
    "compound": "CC(C)Oc1ccccc1N1CCC2CN(CCCSc3nnc(-c4cnccn4)n3C)CC21 (racemic)",
    "target.entity": "D(3) dopamine receptor (Homo sapiens)",
    "quantitative.result": 8.00
  },
  {
    "compound": "Cn1c(SCCCN2CC3CCN(c4ccc(F)cc4)C3C2)nnc1-c1ccn(C)c(=O)c1 (racemic)",
    "target.entity": "D(3) dopamine receptor (Homo sapiens)",
    "quantitative.result": 8.10
  },
  {
    "compound": "Cc1ncoc1-c1nnc(SCCCN2CC3CCN(c4c(F)cccc4F)C3C2)n1C (racemic)",
    "target.entity": "D(3) dopamine receptor (Homo sapiens)",
    "quantitative.result": 8.60
  }
]

[A] Cn1c(SCCCN2CC3CCN(c4ccc(C(F)(F)F)cc4)C3C2)nnc1-c1cccnc1 (racemic)
[B] Cc1ncoc1-c1nnc(SCCCN2CC3CCN(c4ccc(C(F)(F)F)cc4)C3C2)n1C (racemic)
[C] Cn1c(SCCCN2CC3CCN(c4ccc(C(F)(F)F)cc4)C3C2)nnc1C1CCCC1 (racemic)
(Q) Sort the 3 compounds by pKi; largest first, smallest last. Please express your ranking as an ordered list of the labels.
(A) C, B, A
(C: 9.40, B: 8.80, A: 8.50)

[1] COc1cc(N2CCC3CN(CCCSc4nnc(-c5cnccn5)n4C)CC32)ccc1F (racemic)
[2] Cn1c(SCCCN2CC3CCN(c4ccc(C(F)(F)F)cc4)C3C2)nnc1-c1cc[nH]c(=O)c1 (stereo in doubt; 55a)
(Q) Which one would you say has the larger pKi value: 1 , or 2 ? Kindly give the label for the entry you pick.
(A) 1
(1: 8.50, 2: 7.80)

====

- target.entity: D(2) dopamine receptor (Homo sapiens, UniProt P14416)
- measurement.notes: Displacement of [3H]-spiperone from human dopamine D2 receptor expressed in CHO-K1 cell membranes after 120 mins by liquid scintillation counter method
pKi: −log10 of the molar value.
measurement.name: pKi

[
  {
    "compound": "Cn1c(SCCCN2CC3CCN(c4cccc(C#N)c4)C3C2)nnc1-c1cnccn1 (racemic)",
    "target.entity": "D(2) dopamine receptor (Homo sapiens, UniProt P14416)",
    "measurement.name": "pKi",
    "quantitative.result": 7.00
  },
  {
    "compound": "Cn1c(SCCCN2CC3CCN(c4ccc(C(F)(F)F)cc4)C3C2)nnc1-c1cnccn1 (stereo in doubt; 17a)",
    "target.entity": "D(2) dopamine receptor (Homo sapiens, UniProt P14416)",
    "measurement.name": "pKi",
    "quantitative.result": 6.30
  },
  {
    "compound": "Cc1ncoc1-c1nnc(SCCCN2CC3CCN(c4ccc(C(F)(F)F)cc4F)C3C2)n1C (racemic)",
    "target.entity": "D(2) dopamine receptor (Homo sapiens, UniProt P14416)",
    "measurement.name": "pKi",
    "quantitative.result": 7.00
  },
  {
    "compound": "Cn1c(SCCCN2CC3CCN(c4ccc(F)cc4F)C3C2)nnc1-c1cnccn1 (racemic)",
    "target.entity": "D(2) dopamine receptor (Homo sapiens, UniProt P14416)",
    "measurement.name": "pKi",
    "quantitative.result": 6.40
  }
]

[P] Cn1c(SCCCN2CC3CCN(c4ccccc4C(F)(F)F)C3C2)nnc1-c1cccnc1 (racemic)
[Q] Cn1c(SCCCN2CC3CCN(c4ccccc4C#N)C3C2)nnc1-c1cnccn1 (racemic)
[R] Cc1ncoc1-c1nnc(SCCCN2CC3CCN(c4cccc(C#N)c4)C3C2)n1C (racemic)
[S] Cc1ncoc1-c1nnc(SCCCN2CC3CCN(c4ccccc4)C3C2)n1C (stereo in doubt; 6a)
(Q) Sort the 4 compounds by pKi; largest first, smallest last. Please express your ranking as an ordered list of the labels.
(A) R, Q, S, P

====

- measurement.notes: Fraction absorbed in portal vein cannulated Sprague-Dawley rat model
- condition.summary: in vivo
measurement.name: Fa (%)

[
  {
    "molecule": "Cn1c(SCCCN2CC3CCN(c4ccc(C(F)(F)F)cc4)C3C2)nnc1-c1cc[nH]c(=O)c1 (stereo in doubt; 55b)",
    "Fa (%)": 5
  }
]

[a] Cc1ncoc1-c1nnc(SCCCN2CC3CCN(c4ccccc4)C3C2)n1C (stereo in doubt; 6b)
[b] Cn1c(SCCCN2CC3CCN(c4ccccc4)C3C2)nnc1C1CCOCC1 (stereo in doubt; 62a)
[c] Cc1ncoc1-c1nnc(SCCCN2CC3CCN(c4ccc(F)cc4)C3C2)n1C (stereo in doubt; 9a)
[d] Cc1ncoc1-c1nnc(SCCCN2CC3CCN(c4ccc(C(F)(F)F)cc4F)C3C2)n1C (stereo in doubt; 8b)
(Q) Endpoint returns the given molecules ordered by ascending Fa. Please express your ranking as an ordered list of the labels.
(A) b, c, a, d
(b: 5.5%, c: 22%, a: 50%, d: 79%)
